Provenance of the data: patent US10287292B2

system: CXCR7 receptor (Homo sapiens (Human), UniProt P25106)
Sequence (P25106 whole entry): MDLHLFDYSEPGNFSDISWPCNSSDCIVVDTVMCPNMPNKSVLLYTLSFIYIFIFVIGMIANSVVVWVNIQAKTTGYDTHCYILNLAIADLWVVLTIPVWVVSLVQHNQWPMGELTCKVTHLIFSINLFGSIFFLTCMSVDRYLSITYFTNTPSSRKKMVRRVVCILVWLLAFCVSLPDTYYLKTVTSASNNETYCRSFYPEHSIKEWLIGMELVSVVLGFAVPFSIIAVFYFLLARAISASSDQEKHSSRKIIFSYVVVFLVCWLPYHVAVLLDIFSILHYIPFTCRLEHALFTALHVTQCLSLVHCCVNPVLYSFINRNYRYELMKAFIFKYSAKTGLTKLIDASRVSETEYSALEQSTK
test_name: Serum Binding Analysis: displacement of 125I-labeled SDF-1 from CXCR7 in 100% human serum
run_conditions: 125I SDF-1 displacement in 100% human serum, MCF-7 and/or MDA-MB-435S CXCR7 transfected cells, 3 hrs at 4° C.; read-out: Avg Ser IC50
IC50 reference

Below: 4 molecules and their reported IC50.
NC(=O)C1(NC(=O)c2ccn(-c3ccc(F)cc3)n2)CCN(c2nccn3cccc23)C1 (centres unmarked) [Compound 1.042]
≤ 0.5 µM
Cc1ccn2ccnc(N3CC[C@H](NC(=O)c4ccn(-c5ccccc5CC#N)n4)C3)c12 [Compound 1.101]
0.5 to 2.5 µM
CS(=O)(=O)c1ccc(-n2cnc(C(=O)N[C@H]3CCN(c4nccn5ccnc45)C3)n2)cc1 [Compound 1.005]
2.5 to 15 µM
Cc1ccc2nc(C(=O)N[C@H]3CCN(c4nccn5ccnc45)C3)ncc2c1 [Compound 1.048]
≤ 0.5 µM

In: # returns recorded IC50 (system: CXCR7 receptor (Homo sapiens (Human), UniProt P25106)) for Cc1ccccc1-c1nc(C(=O)N[C@H]2CCN(c3nccn4cccc34)C2)cs1 [Compound 1.046]
Out: ≤ 0.5 µM

* * *

system: CXCR7 receptor (Homo sapiens (Human), UniProt P25106)
test_name: Serum Binding Analysis: displacement of 125I-labeled SDF-1 from CXCR7 in 100% human serum
run_conditions: 125I SDF-1 displacement in 100% human serum, MCF-7 and/or MDA-MB-435S CXCR7 transfected cells, 3 hrs at 4° C.; read-out: Avg Ser IC50
observed_property: IC50

O=C(N[C@H]1CCN(c2nccn3cccc23)C1)c1nnc(-c2ccccc2)[nH]1 [Compound 1.083]
500 to 2500 nM
O=C(N[C@H]1CCN(c2nccn3ccnc23)C1)c1ncn(-c2ccccc2F)n1 [Compound 1.006]
≤ 500 nM
Cc1ccn2ccnc(N3CC[C@H](NC(=O)c4ccn(-c5ccc(Cl)c(F)c5)n4)C3)c12 [Compound 1.100]
2500 to 15000 nM

In: Fill in: IC50 of O=C(N[C@H]1CCN(c2nccn3ccnc23)C1)c1csc(N2CCC(O)CC2)n1 [Compound 1.079] is ___
Out: ≤ 500 nM

* * *

system: CXCR7 receptor (Homo sapiens (Human), UniProt P25106)
test_name: Serum Binding Analysis: displacement of 125I-labeled SDF-1 from CXCR7 in 100% human serum
run_conditions: 125I SDF-1 displacement in 100% human serum, MCF-7 and/or MDA-MB-435S CXCR7 transfected cells, 3 hrs at 4° C.; read-out: Avg Ser IC50
# IC50 values compiled below

Worked set:
Cc1ccn2ccnc(N3CC[C@H](NC(=O)c4ccn(-c5ccc(Cl)cc5)n4)C3)c12
2500 to 15000 nM
O=C(N[C@H]1CCN(c2nccn3ccnc23)C1)c1ccc(N2CCC(O)CC2)nn1
2500 to 15000 nM

In: I'm curious: which IC50 was measured for O=C(N[C@H]1CCN(c2nccn3cccc23)C1)c1ncc(-c2ccccc2)cn1 tested on CXCR7 receptor (Homo sapiens (Human), UniProt P25106)?
Out: ≤ 500 nM

* * *

Listed next: entries and their corresponding IC50.
system: CXCR7 receptor (Homo sapiens (Human), UniProt P25106)
test_name: Serum Binding Analysis: displacement of 125I-labeled SDF-1 from CXCR7 in 100% human serum
run_conditions: 125I SDF-1 displacement in 100% human serum, MCF-7 and/or MDA-MB-435S CXCR7 transfected cells, 3 hrs at 4° C.; read-out: Avg Ser IC50

A selection of reference data follows.
O=C(N[C@H]1CCN(c2nccn3cccc23)C1)c1csc(N2CCCC2)n1 [Compound 1.038]
≤ 500 nM
O=C(N[C@H]1CCN(c2nccn3cccc23)C1)c1ncn(-c2ccc(Cl)cc2)n1 [Compound 1.119]
500 to 2500 nM
O=C(N[C@H]1CCN(c2nccn3cccc23)C1)c1ncn(-c2ccccc2)n1 [Compound 1.126]
≤ 500 nM
O=C(N[C@H]1CCN(c2nccn3cccc23)C1)c1ccn(-c2ccc(Cl)cn2)n1 [Compound 1.081]
500 to 2500 nM
O=C(N[C@H]1CCN(c2nccn3cccc23)C1)c1ncc(C2CCCC2)cn1 [Compound 1.028]
≤ 500 nM

In: I would be grateful if you could share the reported IC50 for Cc1ccc2nc(C(=O)N[C@H]3CCN(c4nc(C)cn5cccc45)C3)ncc2c1 [Compound 1.019] .
Out: ≤ 500 nM

In: For O=C(NC1(C(=O)O)CCN(c2nccn3cccc23)C1)c1ccn(-c2ccc(F)cc2)n1 (stereo not drawn) [Compound 1.043] , what is its reported IC50?
Out: 2500 to 15000 nM

In: Give its IC50 value. Item: Cc1ccc2nc(C(=O)N[C@H]3CCN(c4nccn5cccc45)C3)ncc2c1 [Compound 1.085]
Out: ≤ 500 nM

In: // query IC50 value for entry Cc1cn2cccc2c(N2CC[C@H](NC(=O)c3ncn(-c4ccc(F)cc4)n3)C2)n1 [Compound 1.020]
Out: ≤ 500 nM

* * *

The following compounds are shown together with reported pIC50 values.
system: UniProtKB P25106
test_name: Buffer Binding Analysis: displacement of 125I-labeled SDF-1 from CXCR7
run_conditions: 125I SDF-1 displacement, buffer binding medium, MCF-7 and/or MDA-MB-435S CXCR7 transfected cells, 3 hr at 4° C.; read-out: Avg Bind IC50
Method: The compounds were combined with cells expressing the CXCR7 receptor (e.g., MCF cells or cells transfected to express CXCR7) in the presence of the 125 I-labeled SDF-1 chemokine as detailed in Determination of IC50 values. Reagents and Cells (see below). The ability of the compounds to displace the labeled chemokine from the CXCR7 receptor sites at multiple concentrations was then determined with the screening process. […]
pIC50: −log10 of the molar value.

In: Fill blank: measured pIC50 of the compound O=C(N[C@H]1CCN(c2nccn3cnnc23)C1)c1ccn(-c2ccc(F)cc2)n1 is ____.
Out: ≥ 6.30

In: I would be grateful if you could share the reported pIC50 for Cc1ccn2ccnc(N3CC[C@H](NC(=O)c4csc(-c5ccccc5)n4)C3)c12 .
Out: ≥ 6.30

In: Can you look up the measured pIC50 of Cc1ccn2ccnc(N3CC[C@H](NC(=O)c4ncc(-c5ccccc5)cn4)C3)c12 for me?
Out: ≥ 6.30

* * *

system: CXCR7 receptor (Homo sapiens (Human), UniProt P25106)
test_name: Serum Binding Analysis: displacement of 125I-labeled SDF-1 from CXCR7 in 100% human serum
run_conditions: 125I SDF-1 displacement in 100% human serum, MCF-7 and/or MDA-MB-435S CXCR7 transfected cells, 3 hrs at 4° C.; read-out: Avg Ser IC50
pIC50: −log10 of the molar value.
observed_property: pIC50

# count of solved cases: 3
Cc1ccccc1-n1cnc(C(=O)N[C@H]2CCN(c3nccn4cccc34)C2)n1
≥ 6.30
O=C(N[C@H]1CCN(c2nccn3ccnc23)C1)c1cn(-c2ccccc2)cn1
≥ 6.30
CC1(O)CCN(c2nc(C(=O)N[C@H]3CCN(c4nccn5ccnc45)C3)cs2)CC1
5.60 to 6.30

In: I'd like to know its pIC50. The compound in question is O=C(NC1(CO)CCN(c2nccn3cccc23)C1)c1csc(N2CCC(O)CC2)n1 (stereo not shown)
Out: ≥ 6.30

In: Could you share which pIC50 value was measured for O=C(N[C@H]1CCN(c2nccn3cnnc23)C1)c1ccn(C2CCOCC2)n1 ?
Out: 5.60 to 6.30

In: Need pIC50, item O=C(N[C@H]1CCN(c2nccn3ccnc23)C1)c1ccn(-c2ccc(F)cc2)n1
Out: ≥ 6.30

In: Need pIC50, item O=C(N[C@H]1CCN(c2nccn3ccnc23)C1)c1cnc(N2CCC(O)CC2)cn1
Out: 4.82 to 5.60

In: Endpoint output: pIC50 of O=C(N[C@H]1CCN(c2nccn3cccc23)C1)c1csc(-c2ccc(F)cc2)n1 . Value?
Out: ≥ 6.30

In: Please look up its pIC50: Cc1cnc(C(=O)N[C@H]2CCN(c3nccn4cccc34)C2)nc1
Out: 5.60 to 6.30

In: I'd like to know its pIC50. The compound in question is Cc1ccc(-n2cnc(C(=O)N[C@H]3CCN(c4nccn5ccnc45)C3)n2)cc1
Out: 5.60 to 6.30

* * *

system: CXCR7 receptor (Homo sapiens (Human))
test_name: Serum Binding Analysis: displacement of 125I-labeled SDF-1 from CXCR7 in 100% human serum
run_conditions: 125I SDF-1 displacement in 100% human serum, MCF-7 and/or MDA-MB-435S CXCR7 transfected cells, 3 hrs at 4° C.; read-out: Avg Ser IC50
observed_property: IC50

Would you please look over these solved cases?
O=C(N[C@H]1CCN(c2nccn3cccc23)C1)c1ncc2cc(Cl)ccc2n1 [Compound 1.053]
≤ 500 nM
CCc1cn2cccc2c(N2CC[C@H](NC(=O)c3ncn(-c4ccccc4)n3)C2)n1 [Compound 1.015]
≤ 500 nM
N#Cc1ccc(-n2cnc(C(=O)N[C@H]3CCN(c4nccn5ccnc45)C3)n2)cc1 [Compound 1.002]
2500 to 15000 nM
Cc1ccccc1-n1ccc(C(=O)N[C@H]2CCN(c3nccn4cnnc34)C2)n1 [Compound 1.054]
≤ 500 nM
O=C(NC1(CO)CCN(c2nccn3ccnc23)C1)c1ncn(-c2ccccc2)n1 (stereo not drawn) [Compound 1.050]
≤ 500 nM

In: Request body: readout IC50, system CXCR7 receptor (Homo sapiens (Human)), query O=C(N[C@H]1CCN(c2nccn3ccnc23)C1)c1ncn(-c2ccccc2)n1 [Compound 1.091] . Return the value.
Out: ≤ 500 nM
